# assay protocol: Selectivity index, ratio of IC50 for HEK293 cells to IC50 for human DU145 cells
# Format: toxicity
# stated conditions: HEK293 cells and DU145 cells, read-out: Ratio IC50
# maps each entry to its selectivity ratio
Just the number.

The following molecules have reported results that may help.
COC1=C(OC)[C@]23C(=CC1=O)[C@H](OC(=O)C(C)(C)C)[C@H](C)[C@@]2(C)Cc1cc(OC)c(OC)c(OC)c13 = 79.3
COC1=C(OC)[C@]23C(=CC1=O)[C@H](OC(=O)CCl)[C@H](C)[C@@]2(C)Cc1cc(OC)c(OC)c(OC)c13 = 78.7
CCC(=O)O[C@H]1C2=CC(=O)C(OC)=C(OC)[C@]23c2c(cc(OC)c(OC)c2OC)C[C@]3(C)[C@H]1C = 7.34
COC1=C(OC)[C@]23C(=CC1=O)[C@H](O)[C@H](C)[C@@]2(C)Cc1cc(OC)c(OC)c(OC)c13 = 13
CCCCCCCCCC(=O)O[C@H]1C2=CC(=O)C(OC)=C(OC)[C@]23c2c(cc(OC)c(OC)c2OC)C[C@]3(C)[C@H]1C = 5.46

Ask: For the molecule "COC1=C(OC)[C@]23C(=CC1=O)[C@H](OC(=O)CN1CCN(C(C)=O)CC1)[C@H](C)[C@@]2(C)Cc1cc(OC)c(OC)c(OC)c13" , give its measured selectivity ratio value.
Result: 6.39

Ask: For the molecule "COC1=C(OC)[C@]23C(=CC1=O)C[C@H](C)[C@@]2(C)Cc1cc(OC)c(OC)c(OC)c13" , give its measured selectivity ratio value.
Result: 2.58

----------
# assay protocol: Selectivity index, ratio of IC50 for HEK293 cells to IC50 for human DU145 cells
# Type: toxicity
# stated conditions: HEK293 cells and DU145 cells, read-out: Ratio IC50
# maps each entry to its selectivity ratio
Just the number.

The following compounds have reported results that may help.
COC1=C(OC)[C@]23C(=CC1=O)[C@H](OC(=O)CN1CCCC1)[C@H](C)[C@@]2(C)Cc1cc(OC)c(OC)c(OC)c13 = 8.96
COC1=C(OC)[C@]23C(=CC1=O)[C@H](OC(=O)C(Cl)(Cl)Cl)[C@H](C)[C@@]2(C)Cc1cc(OC)c(OC)c(OC)c13 = 60.1
COC1=C(OC)[C@]23C(=CC1=O)[C@H](OC(=O)c1ccc(F)cc1)[C@H](C)[C@@]2(C)Cc1cc(OC)c(OC)c(OC)c13 = 28.9
COc1cc2c(c(OC)c1OC)-c1c(cc(OC)c(OC)c1OC)C[C@](C)(O)[C@@H](C)C2 [SCHIZANDRIN] = 6.24
COC1=C(OC)[C@]23C(=CC1=O)[C@H](OC(=O)COc1ccc(C(C)C)cc1)[C@H](C)[C@@]2(C)Cc1cc(OC)c(OC)c(OC)c13 = 9.11

Ask: For the compound "COC1=C(OC)[C@]23C(=CC1=O)[C@H](OC(=O)CN1CCN(Cc4cccc(OC)c4)CC1)[C@H](C)[C@@]2(C)Cc1cc(OC)c(OC)c(OC)c13" , give its measured selectivity ratio value.
Result: 12.5

Ask: For the compound "CCCCC(=O)O[C@H]1C2=CC(=O)C(OC)=C(OC)[C@]23c2c(cc(OC)c(OC)c2OC)C[C@]3(C)[C@H]1C" , give its measured selectivity ratio value.
Result: 9.88

Ask: For the compound "COC1=C(OC)[C@]23C(=CC1=O)[C@H](OC(=O)C(C)C)[C@H](C)[C@@]2(C)Cc1cc(OC)c(OC)c(OC)c13" , give its measured selectivity ratio value.
Result: 10.6
